Assay method text: Pharmacokinetics of single oral doses of nirogacestat dihydrobromide
Format: in vivo, human
Measurement conditions: human, in vivo, po, 150 mg, COHORT 1: 150 mg (3 × 50 mg), Period 1, read-out: Cmax, Median
Where a name gives a salt, the structure may show the parent alone.
Reported endpoint: Cmax (µg/mL)
Just the number please, in µg/mL, no unit attached.

Query block: Bench note: what Cmax did CCC[C@H](N[C@H]1CCc2cc(F)cc(F)c2C1)C(=O)Nc1cn(C(C)(C)CNCC(C)(C)C)cn1 [nirogacestat dihydrobromide] show?
Result block: 0.697

---

Assay method text: Pharmacokinetics of single oral doses of nirogacestat dihydrobromide
Assay type: in vivo, human
Measurement conditions: human, in vivo, po, 100 mg, COHORT 2: 100 mg, Period 1, read-out: Half-life, Median (converted)
Counter-ions that a name gives are not always drawn.
Reported endpoint: half-life (h)
Just the number please, in h, no unit attached.

Query block: Bench note: what half-life did CCC[C@H](N[C@H]1CCc2cc(F)cc(F)c2C1)C(=O)Nc1cn(C(C)(C)CNCC(C)(C)C)cn1 [nirogacestat dihydrobromide] show?
Result block: 24.4
